Entry source: PubChem BioAssay (NCI)

Give measured growth for each item. Keep answers brief.
# Tested on: CCRF-CEM leukemia
# assay.notes: NCI-60 one-dose screen, 48 h (100 = growth as untreated, 0 = no growth, -100 = all killed)
# condition.context: 10 µM unless noted
The panel holds about 83,000 compounds, 20% with a hit somewhere; the sample as a whole holds those more often. Activity calls are given as the source filed them. The calls were made as follows: active = growth percent below 10; inactive = the rest.

Give CCRF-CEM leukemia growth for N#C/C(=C/c1ccc(O)c([N+](=O)[O-])c1)c1nc(-c2ccc([N+](=O)[O-])cc2)cs1 25.5% (inactive)

Give CCRF-CEM leukemia growth for Nc1c(C(=O)Nc2cccc3ccccc23)sc2nc3c(cc12)CCCCCC3 11.2% (inactive)

Give CCRF-CEM leukemia growth for O=[N+]([O-])c1ccc(N=Nc2c(O)c(N=Nc3cc([N+](=O)[O-])cc([N+](=O)[O-])c3O)cc(N=Nc3cc(S(=O)(=O)O)cc4cc(S(=O)(=O)O)cc(O)c34)c2O)cc1 97.2% (inactive)

Give CCRF-CEM leukemia growth for O=C(/C(=C/c1ccc([N+](=O)[O-])cc1)SCc1ccc(Cl)cc1)c1ccc(F)cc1 4.66% (active)

Give CCRF-CEM leukemia growth for O=S(=O)(O)c1ccc(N=NSc2ccc3ccccc3c2)cc1 89.8% (inactive)

Give CCRF-CEM leukemia growth for COc1ccc2nc3nc4ccc[nH]c4cc3c2c1 97.5% (inactive)
